// log10 of IC50 lookup, one value per entry
target: UniProt O75469; test: hPXR binding assay; conditions: read-out: Binding (IC50/μM); hPXR binding assay
All values: log10 IC50 [µM].

>>> quantitative_result("COc1ccc(OC)c(-n2nnc(C(=O)Nc3cc(C(C)(C)C)ccc3OCC(C)C)c2C)c1 [B32]")
-1.74

For the molecule shown here, COc1ccc(C)cc1-n1nnc(C(=O)Nc2cc(O)cc(C(C)(C)C)c2)c1C [G7] , give the reported log10 of IC50.
0.36

For the molecule shown here, COc1ccc(OC)c(-n2nnc(C(=O)Nc3cccc(N(C)C)c3)c2C)c1 [A10] , give the reported log10 of IC50.
1.02

For the molecule shown here, CCCCNc1cc(NC(=O)c2nnn(-c3cc(Cl)ccc3OC)c2C)cc(C(C)(C)C)c1 [F3] , give the reported log10 of IC50.
-0.92

For the molecule shown here, COc1ccc(OC)c(-n2nnc(C(=O)Nc3cc(C(C)(C)C)ccc3OCCOCCOCCOCCO)c2C)c1 [B10] , give the reported log10 of IC50.
0.37

###

target: hPXR (Homo sapiens (Human)); test: hPXR binding assay; settings: read-out: Binding (IC50/μM); hPXR binding assay
// IC50 lookup, one value per entry
Please provide the amount together with its unit, number first.

Below, 4 molecules whose answers are already recorded.
>>> result("COc1ccc(OC)c(-n2nnc(C(=O)Nc3cc(C(C)(C)C)ccc3OCCN(C)C)c2C)c1")
"0.28 µM"
>>> result("CCCCOc1cc(NC(=O)c2nnn(-c3cc(Cl)ccc3OC)c2C)cc(C(C)(C)C)c1")
"0.042 µM"
>>> result("COc1ccc(-n2nnc(C(=O)Nc3cc(C)ccc3OC)c2C)cc1")
"1.2 µM"
>>> result("CCCCNc1cc(NC(=O)c2nnn(-c3cc(OC)ccc3OC)c2C)cc(C(C)(C)C)c1")
"0.45 µM"

With those in mind, consider the next molecule.
For the molecule shown here, COc1ccc(C)cc1-n1nnc(C(=O)Nc2ccc(OC)c(C(C)(C)C)c2)c1C , give the reported IC50.
1.08 µM

###

// IC50 lookup, one value per entry
biological target: UniProtKB O75469; experiment: cell-based hPXR antagonistic assay
Give a bare numeral; the unit nM is implied.

Below, 7 molecules whose answers are already recorded.
>>> quantitative_result("COc1ccc(OC)c(-n2nnc(C(=O)Nc3cc(OC(=O)c4nnn(-c5cc(OC)ccc5OC)c4C)cc(C(C)(C)C)c3)c2C)c1")
830
>>> quantitative_result("CCC[C@H](CC)Oc1ccc(C(C)(C)C)cc1NC(=O)c1nnn(-c2cc(OC)c(OC)cc2OC)c1C")
120
>>> quantitative_result("COc1ccc(OC)c(-n2nnc(C(=O)Nc3cc(C(C)(C)C)ccc3OCCOCCOCCOCCO)c2C)c1")
1920
>>> quantitative_result("COc1ccc(C)cc1-n1nnc(C(=O)Nc2ccc(O)c(C(C)(C)C)c2)c1C")
930
>>> quantitative_result("CCC(C)Oc1ccc(C(C)(C)C)cc1NC(=O)c1nnn(-c2ccccc2OC)c1C (centres unmarked)")
61
>>> quantitative_result("COc1ccc(C)cc1-n1nnc(C(=O)Nc2cc(C(C)(C)C)cc(C(C)(C)C)c2)c1C")
200
>>> quantitative_result("COc1ccc(OC)c(-n2nnc(C(=O)Nc3cc(C(C)(C)C)ccc3OCC(C)(C)C)c2C)c1")
180

With those in mind, consider the next molecule.
For the molecule shown here, CCC[C@@H](CC)Oc1ccc(C(C)(C)C)cc1NC(=O)c1nnn(-c2cc(OC)ccc2OC)c1C , give the reported IC50.
52

###

biological target: hPXR (Homo sapiens (Human)); assay: cell-based hPXR inverse agonistic assay
// pIC50 lookup, one value per entry
# pIC50: negative log10 of molar concentration; output just the value

For the molecule shown here, COc1ccc(OC)c(-n2nnc(C(=O)Nc3cc(C(C)(C)C)ccc3OCCN(C)C)c2C)c1 [B14] , give the reported pIC50.
5.74

For the molecule shown here, CCCC(CC)Oc1ccc(C(C)(C)C)cc1NC(=O)c1nnn(-c2cc(OC)ccc2OC)c1C (stereo not drawn) [B34] , give the reported pIC50.
8.64

For the molecule shown here, COc1ccc(OC)c(-n2nnc(C(=O)Nc3cc(NCCN)cc(C(C)(C)C)c3)c2C)c1 [D10] , give the reported pIC50.
5.15

For the molecule shown here, COc1ccc(OC)c(-n2nnc(C(=O)Nc3cc(C(C)(C)C)ccc3OCC(C)(C)C)c2C)c1 [B29] , give the reported pIC50.
7.59

###

target: hPXR (Homo sapiens (Human), UniProt O75469); test: cell-based hPXR antagonistic assay
Sequence (O75469 whole entry): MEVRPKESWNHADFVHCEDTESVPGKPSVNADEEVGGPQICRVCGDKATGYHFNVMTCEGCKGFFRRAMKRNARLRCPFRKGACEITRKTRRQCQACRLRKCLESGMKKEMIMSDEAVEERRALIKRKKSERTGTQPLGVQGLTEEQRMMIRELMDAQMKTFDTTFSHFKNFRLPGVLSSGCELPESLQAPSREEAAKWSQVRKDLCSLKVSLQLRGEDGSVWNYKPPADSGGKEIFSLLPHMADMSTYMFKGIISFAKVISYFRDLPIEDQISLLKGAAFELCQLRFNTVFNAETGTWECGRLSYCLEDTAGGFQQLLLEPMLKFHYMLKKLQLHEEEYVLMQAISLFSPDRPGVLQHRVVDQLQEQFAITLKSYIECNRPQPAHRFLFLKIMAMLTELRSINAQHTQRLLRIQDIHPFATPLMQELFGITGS
pIC50: −log10 of the molar value.
Classify as follows. Reported pIC50 greater than or equal to 7: YES. Reported pIC50 below: NO.

Some entries whose results are on file:
>>> class_label("COc1ccc(OC)c(-n2nnc(NC(=O)Nc3cccc(C(C)(C)C)c3)c2C)c1 [K4]")
"NO"
>>> class_label("COc1ccc(OC)c(-n2nnc(C(=O)Nc3ccc4c(c3)Nc3ccccc3CC4)c2C)c1 [A23]")
"NO"
>>> class_label("COc1ccc(C)cc1-n1nnc(C(=O)Nc2cc(N)cc(C(C)(C)C)c2)c1C [G5]")
"NO"
>>> class_label("CCC[C@H](CC)Oc1ccc(C(=O)OC)cc1NC(=O)c1nnn(-c2cc(OC)ccc2OC)c1C [M4]")
"YES"
>>> class_label("COc1ccc(OC)c(-n2nnc(C(=O)Nc3cccc(-n4cccc4)c3)c2C)c1 [A11]")
"NO"

Please examine the following record next.
Does pIC50 meet or surpass 7 for CCCC(CC)Oc1ccc(C(C)(C)C)cc1NC(=O)c1nnn(-c2cc(OC)ccc2OC)c1C (stereo not shown) [B34] ?
YES

###

// pIC50 lookup, one value per entry
target: hPXR (Homo sapiens (Human), UniProt O75469); assay: cell-based hPXR antagonistic assay
# pIC50: negative log10 of molar concentration; output just the value

Below, 4 compounds whose answers are already recorded.
>>> quantitative_result("COC(=O)CCCOc1cc(NC(=O)c2nnn(-c3cc(OC)ccc3OC)c2C)cc(C(C)(C)C)c1")
5.96
>>> quantitative_result("COc1ccc(C)cc1-n1nnc(C(=O)Nc2ccc(OC)c(C(C)(C)C)c2)c1C")
5.77
>>> quantitative_result("COc1ccc(OC)c(-n2nnc(C(=O)Nc3cc(OCCCN4CCN(C)CC4)cc(C(C)(C)C)c3)c2C)c1")
5.27
>>> quantitative_result("COc1ccc(OC)c(-n2nnc(C(=O)Nc3cc(NCCN)cc(C(C)(C)C)c3)c2C)c1")
4.92

With those in mind, consider the next compound.
For the compound shown here, COc1ccc(OC)c(-n2nnc(C(=O)Nc3cc(OCCCCCCCCCl)cc(C(C)(C)C)c3)c2C)c1 , give the reported pIC50.
5.57

###

biological target: hPXR (Homo sapiens (Human), UniProt O75469); test: cell-based hPXR antagonistic assay; conditions: read-out: Antagonist (% inhibition at 10 μM)
Quantity Name: inhibition at 10 µM (%)
Give a bare numeral; the unit % is implied.

>>> quantitative_result("CCC(CC)Oc1ccc(C(C)(C)C)cc1NC(=O)c1nnn(-c2cc(OC)ccc2OC)c1C")
105
>>> quantitative_result("CCC[C@H](CC)Oc1ccc(C(C)(C)C)cc1NC(=O)c1nnn(-c2cc(C)c(OC)cc2OC)c1C")
15
>>> quantitative_result("C#CCCCOc1cc(NC(=O)c2nnn(-c3cc(OC)ccc3OC)c2C)cc(C(C)(C)C)c1")
107
>>> quantitative_result("CCC[C@H](CC)Oc1ccc(C(=O)N2CCN(C(C)=O)CC2)cc1NC(=O)c1nnn(-c2cc(OC)ccc2OC)c1C")
76
>>> quantitative_result("COc1ccc(OC)c(-n2nnc(C(=O)Nc3cc(OC(=O)c4nnn(-c5cc(OC)ccc5OC)c4C)cc(C(C)(C)C)c3)c2C)c1")
68

For the compound shown here, COc1ccc(OC)c(-n2nnc(C(=O)Nc3cc(OCCCC(=O)O)cc(C(C)(C)C)c3)c2C)c1 , give the reported inhibition at 10 µM.
104

###

// IC50 lookup, one value per entry
molecular target: UniProt O75469; experiment: cell-based hPXR antagonistic assay
Give a bare numeral; the unit nM is implied.

Below, 5 compounds whose answers are already recorded.
>>> quantitative_result("COc1cc(NC(=O)c2nnn(-c3cc(Cl)ccc3OC)c2C)cc(C(C)(C)C)c1")
480
>>> quantitative_result("COc1ccc(OC)c(-n2nnc(C(=O)Nc3cc(OCCCCI)cc(C(C)(C)C)c3)c2C)c1")
66
>>> quantitative_result("COc1ccc(Cl)cc1-n1nnc(C(=O)Nc2cc(C(C)(C)C)cc(C(C)(C)C)c2)c1C")
240
>>> quantitative_result("CCCC(C)Oc1ccc(C(C)(C)C)cc1NC(=O)c1nnn(-c2ccccc2OC)c1C (centres unmarked)")
32
>>> quantitative_result("COc1ccc(OC)c(-n2nnc(C(=O)Nc3cc(OCCCCCCCCI)cc(C(C)(C)C)c3)c2C)c1")
2700

For the compound shown here, COc1ccc(OC)c(-n2nnc(C(=O)Nc3cc(NCC(=O)O)cc(C(C)(C)C)c3)c2C)c1 , give the reported IC50.
17300

For the compound shown here, COc1ccc(OC)c(-n2nnc(C(=O)Nc3cc(C(C)(C)C)ccc3OCCCCCCCCI)c2C)c1 , give the reported IC50.
2480

For the compound shown here, COc1ccc(OC)c(-n2nnc(C(=O)Nc3cc(OCCOCCOCCOCCN)cc(C(C)(C)C)c3)c2C)c1 , give the reported IC50.
19700

For the compound shown here, COc1cc(NC(=O)c2nnn(-c3cc(C)ccc3OC)c2C)cc(C(C)(C)C)c1 , give the reported IC50.
640

For the compound shown here, COc1ccc(OC)c(-n2nnc(NS(=O)(=O)c3ccc(C(C)(C)C)cc3)c2C)c1 , give the reported IC50.
10700

For the compound shown here, CCCCOc1cc(NC(=O)c2nnn(-c3cc(Cl)ccc3OC)c2C)cc(C(C)(C)C)c1 , give the reported IC50.
670

For the compound shown here, CCCC(CC)Oc1ccc(C(C)(C)C)cc1NC(=O)c1nnn(-c2ccccc2OC)c1C (centres unmarked) , give the reported IC50.
31

For the compound shown here, CCC(C)Oc1ccc(C(C)(C)C)cc1NC(=O)c1nnn(-c2cc(C)ccc2OC)c1C (centres unmarked) , give the reported IC50.
9.4

For the compound shown here, COc1ccc(OC)c(-n2nnc(C(=O)Nc3cc(C(C)(C)C)ccc3OCC(C)C)c2C)c1 , give the reported IC50.
260
